B1: Q209H, Q93D82 (parent)
chain: MSTAIVTNVKHFGGMGSALRLSEAGHTVACHDESFKQKDELEAFAETYPQLKPMSEQEPAELIEAVTSAYGQVDVLVSNDIFAPEFQPIDKYAVEDYRGAVEALQIRPFALVNAVASQMKKRKSGHIIFITSATPFGPWKELSTYTSARAGACTLANALSKELGEYNIPVFAIGPNYLHSEDSPYFYPTEPWKTNPEHVAHVKKVTALQRLGTQKELGELVAFLASGSCDYLTGQVFWLAGGFPMIERWPGMPE

Variants of: B1
Condition context: Rhizobium radiobacter; pH 7.7; Thermal; CD; Phosphate 5mM; structure 1PWX; whole UniProt chain shown
# Tm annotations
Endpoint: Tm (°C)

[
  {
    "Mutant": "Q209H",
    "Endpoint value": 58
  },
  {
    "Mutant": "A69L",
    "Endpoint value": 64.5
  },
  {
    "Mutant": "C30V",
    "Endpoint value": 64
  },
  {
    "Mutant": "T213D",
    "Endpoint value": 62
  },
  {
    "Mutant": "E61R",
    "Endpoint value": 64.5
  },
  {
    "Mutant": "T27M",
    "Endpoint value": 65
  },
  {
    "Mutant": "M54F",
    "Endpoint value": 63.5
  },
  {
    "Mutant": "N157R",
    "Endpoint value": 60
  },
  {
    "Mutant": "Y48F",
    "Endpoint value": 65.5
  },
  {
    "Mutant": "E219N",
    "Endpoint value": 63.5
  },
  {
    "Mutant": "A158V",
    "Endpoint value": 71
  },
  {
    "Mutant": "S68K",
    "Endpoint value": 65
  },
  {
    "Mutant": "K161F",
    "Endpoint value": 64
  },
  {
    "Mutant": "T47K",
    "Endpoint value": 66
  },
  {
    "Mutant": "F86W",
    "Endpoint value": 64.5
  },
  {
    "Mutant": "K123H",
    "Endpoint value": 65.5
  },
  {
    "Mutant": "F136W",
    "Endpoint value": 60.5
  },
  {
    "Mutant": "A83M",
    "Endpoint value": 65.5
  },
  {
    "Mutant": "K140S",
    "Endpoint value": 62.5
  },
  {
    "Mutant": "G99A",
    "Endpoint value": 66
  },
  {
    "Mutant": "A69H",
    "Endpoint value": 64.5
  },
  {
    "Mutant": "Q37E",
    "Endpoint value": 65
  }
]
